System: HL-60
test_description: NCI tumour cell line growth inhibition, 48 h
Active and inactive are the calls of the source. Rule as the data show it: active = GI50 up to about 1.1 µM and inactive = higher.
Labels: active, inactive

[[record]]
molecule = "CCCCCCCCCC[C@@H](O)[C@@H]1CC[C@H]([C@H]2CC[C@@H]([C@@H](O)CCCCCCCCCC[C@H]3CC(CC(C)=O)C(=O)O3)O2)O1 (some centres not stated)"
assigned_category = "active"

[[record]]
molecule = "Cc1ccc(S(=O)(=O)OC2CCN(C)CC2)cc1"
assigned_category = "inactive"

[[record]]
molecule = "COC(=O)CCC(=O)c1ccc2c(c1)CCC2"
assigned_category = "inactive"

[[record]]
molecule = "COc1cc(C(=O)O[C@H]2CCC3CCC2N3C)cc(OC)c1OC (some centres not stated)"
assigned_category = "inactive"

[[record]]
molecule = "CCOC(=O)N1c2ccccc2C(C)=CC(C)C1C (configuration not stated)"
assigned_category = "inactive"

[[record]]
molecule = "CCCCCCCCCCCCCCCCCCOC(COP(=O)(O)OCC1OC(n2cc(F)c(=O)[nH]c2=O)CC1O)COP(=O)(O)OCC1OC(n2ccc(N)nc2=O)C(O)C1O (configuration not stated)"
assigned_category = "inactive"

[[record]]
molecule = "C=C1C[C@@H]2O[C@H]3[C@H]4[C@@H](C[C@@H](C)[C@@H](OC(C)=O)[C@H]42)[C@@H](C)CO[C@@]3(C)[C@H](OC(C)=O)C[C@H]1O"
assigned_category = "inactive"

[[record]]
molecule = "CC(C)CC(NC(=O)C(C)(CI)Cc1ccccc1)C(=O)Nc1ccccc1 (configuration not stated)"
assigned_category = "inactive"

[[record]]
molecule = "CNC(=O)OCc1c(COC(=O)NC)c(C)n(-c2ccc(Br)cc2)c1C"
assigned_category = "inactive"

[[record]]
molecule = "COc1ccc(C(=O)Nc2ccccc2C#N)cc1"
assigned_category = "inactive"

[[record]]
molecule = "Clc1ccc(COC(Cn2ccnc2)c2ccc(Cl)cc2Cl)c(Cl)c1 (configuration not stated) [MICONAZOLE NITRATE]"
assigned_category = "inactive"

[[record]]
molecule = "CCCCCCOc1ccc(C(=O)NO)cc1"
assigned_category = "inactive"

[[record]]
molecule = "CO[C@H](C)[C@](O)(C(=O)OCC1=CCN2CC[C@@H](O)[C@H]12)C(C)C"
assigned_category = "inactive"

[[record]]
molecule = "CN1CCN(c2nc(N)c(Br)c(Cl)n2)CC1"
assigned_category = "inactive"

[[record]]
molecule = "CC(=O)OC(Cc1cc(C=C(C(F)(F)F)C(F)(F)F)cc(C)n1)(C(F)(F)F)C(F)(F)F"
assigned_category = "active"

[[record]]
molecule = "c1ccc(OC2=NC3=S(S2)SC(Oc2ccccc2)=N3)cc1"
assigned_category = "inactive"

[[record]]
molecule = "O=C(C#Cc1ccccc1)C1=Cc2ccccc2OC1"
assigned_category = "inactive"

[[record]]
molecule = "CCOC(=O)C(OCC1CC=CCC1)Sc1ccccc1 (configuration not stated)"
assigned_category = "inactive"

[[record]]
molecule = "CN(C)CCNC(=O)c1cccc2c(Nc3ccc(S(N)(=O)=O)cc3)c3ccccc3nc12"
assigned_category = "active"

[[record]]
molecule = "O=c1ssc(Cl)c1Nc1c(Cl)ssc1=O"
assigned_category = "inactive"

[[record]]
molecule = "COC(=O)/C(C#N)=C1\\CCC(O)N1 (configuration not stated)"
assigned_category = "inactive"

[[record]]
molecule = "O=C(O)C1(Cc2ccccc2)Cc2cc3c(cc2C1)CCC3"
assigned_category = "inactive"

[[record]]
molecule = "C=CCCCCCCCCCOC1C=CC(OC(C)=O)C(COC(C)=O)O1 (configuration not stated)"
assigned_category = "inactive"

[[record]]
molecule = "c1cc(-c2ccc(Oc3ccc(-c4ccncc4)cc3)cc2)ccn1"
assigned_category = "inactive"

[[record]]
molecule = "COc1ccc2c(c1)Cc1c-2[nH]c2cc3c(cc2c1=O)OCO3"
assigned_category = "inactive"

[[record]]
molecule = "CCOC(=O)c1c(C)cc(=O)n2c1[nH]c1ccccc12"
assigned_category = "inactive"

[[record]]
molecule = "N#CC(C#N)=C/C=C/c1c(Cl)cccc1Cl"
assigned_category = "active"

[[record]]
molecule = "Fc1cccc2c1cc1ccc3cccc4ccc2c1c34"
assigned_category = "inactive"

[[record]]
molecule = "N#Cc1c(Cl)c2ccccc2n2c1nc1ccccc12"
assigned_category = "inactive"

[[record]]
molecule = "COC(c1ccsc1)C(C#N)(C#N)/N=C/c1ccsc1 (configuration not stated)"
assigned_category = "inactive"

[[record]]
molecule = "COc1ccc(CNc2nc3ccc(C(F)(F)F)cc3nc2-c2ccccc2)cc1OC"
assigned_category = "inactive"

[[record]]
molecule = "O=[N+]([O-])/C(C(Cl)=C(Cl)Cl)=C1\\NCCS1"
assigned_category = "inactive"

[[record]]
molecule = "CC(C)(C)OC(=O)NC1CC2(C=C(Br)C(=O)C(Br)=C2)OC1=O (configuration not stated)"
assigned_category = "inactive"

[[record]]
molecule = "C[N+]1(CCNP(=S)(NCC[N+]2(C)Cc3c(ccc4c3OCO4)C3C2c2cc4c(cc2C[C@@H]3O)OCO4)NCC[N+]2(C)Cc3c(ccc4c3OCO4)C3C2c2cc4c(cc2C[C@@H]3O)OCO4)Cc2c(ccc3c2OCO3)C2C1c1cc3c(cc1C[C@H]2O)OCO3 (some centres not stated)"
assigned_category = "active"

[[record]]
molecule = "CC1(F)C=CC(=O)C=C1"
assigned_category = "inactive"

[[record]]
molecule = "Cn1c2ccccc2c2cc(-c3ccccc3)c3c(c21)C(=O)C=CC3=O"
assigned_category = "inactive"

[[record]]
molecule = "COC(=O)CCC(=O)NC1=C(Nc2ccc(OC)cc2)C(=O)c2ccccc2C1=O"
assigned_category = "inactive"

[[record]]
molecule = "CC(N)Cc1cccc(C(F)(F)F)c1 (configuration not stated)"
assigned_category = "inactive"

[[record]]
molecule = "O=C(O)C1CCC(=O)N1C(=O)C(Cl)c1ccccc1 (configuration not stated)"
assigned_category = "inactive"

[[record]]
molecule = "Nc1nc(=S)n(-c2ccc(Cl)cc2)c2nc3ccccc3cc12"
assigned_category = "inactive"

[[record]]
molecule = "O=C1NC(N2CCOCC2)=N/C1=C\\c1cccs1"
assigned_category = "inactive"

[[record]]
molecule = "N=C(N)Cn1cnc2ccccc21"
assigned_category = "inactive"

